# System name: Serine/threonine-protein kinase BRSK2 (Homo sapiens) (UniProt Q8IWQ3);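 note: values are mean inhibition of BRSK2 from the GSK PKIS screening dataset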
# Sequence (Q8IWQ3 whole entry): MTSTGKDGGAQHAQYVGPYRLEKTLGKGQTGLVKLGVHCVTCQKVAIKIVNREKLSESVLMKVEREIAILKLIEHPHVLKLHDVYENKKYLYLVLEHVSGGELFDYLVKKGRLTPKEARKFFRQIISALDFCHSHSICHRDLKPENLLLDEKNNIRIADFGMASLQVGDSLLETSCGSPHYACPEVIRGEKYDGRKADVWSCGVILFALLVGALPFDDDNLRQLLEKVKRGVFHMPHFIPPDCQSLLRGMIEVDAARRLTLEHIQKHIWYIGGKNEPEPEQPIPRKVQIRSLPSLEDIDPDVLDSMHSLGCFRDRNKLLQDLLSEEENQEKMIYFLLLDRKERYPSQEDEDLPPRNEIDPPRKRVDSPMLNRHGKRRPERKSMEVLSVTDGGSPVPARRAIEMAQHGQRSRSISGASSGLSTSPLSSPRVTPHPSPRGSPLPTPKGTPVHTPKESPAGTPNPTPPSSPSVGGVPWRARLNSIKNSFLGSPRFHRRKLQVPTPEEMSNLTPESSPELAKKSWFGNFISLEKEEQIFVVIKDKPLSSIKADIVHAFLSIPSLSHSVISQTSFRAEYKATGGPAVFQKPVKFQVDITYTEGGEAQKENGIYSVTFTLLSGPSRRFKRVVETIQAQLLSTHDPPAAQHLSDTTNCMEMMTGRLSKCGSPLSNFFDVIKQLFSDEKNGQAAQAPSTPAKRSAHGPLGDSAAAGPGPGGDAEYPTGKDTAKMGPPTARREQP
# Condition context: at 0.1 µM
Measure: inhibition (%)
Numbers only, in %.

Worked cases, inhibition given:
N#Cc1ccc2c(-c3ccnc(NC4CC4)n3)c(-c3ccc(F)cc3)nn2c1 | -0.61
CC(C)c1ccc(-c2cc(-c3c[nH]nc3-c3ccccn3)ccn2)cc1 | 0.14
Cc1nnc(-c2cccc(-c3ccc(C(=O)NCC4CC4)cc3)c2)o1 | 6.6
c1ccc(-c2n[nH]cc2-c2ccnc(-c3ccc(OCCn4ccnc4)cc3)c2)nc1 | 0.62
COc1cc(N2CCN(C(C)C)CC2)ccc1Nc1nc(Nc2cccc(F)c2C(=O)O)c2cc[nH]c2n1 | 1.72

Would you mind giving inhibition for every compound in the list below?
1. CN(C)CCNC(=O)Nc1ccc(N(C)c2ccnc(Nc3ccc(CS(C)(=O)=O)cc3)n2)cc1
2. NS(=O)(=O)c1ccc(N/N=C2\C(=O)Nc3cccc(CCc4ccncc4)c32)cc1
3. COc1cc(Nc2ncc(-c3ccccc3)o2)cc(OC)c1
4. COc1ccc(-c2nn3ncccc3c2-c2ccnc(Nc3ccc(F)c(F)c3)n2)cc1
5. OCCCNc1nccc(-c2c(-c3ccc(F)cc3)nn3cc(C(F)(F)F)ccc23)n1
6. CCS(=O)(=O)c1ccc(OC)c(Nc2ncc(-c3cccc(C(C)=O)c3)o2)c1
7. O=C(O[C@H]1CN[C@H](C#Cc2cc3ncnc(Nc4ccc5c(ccn5Cc5cc(F)ccc5F)c4)c3s2)C1)N1CCOCC1

[reply]
1. 2.14
2. 3.33
3. 2.68
4. 5.66
5. 1.44
6. 1.58
7. 1.23

For every item below, please supply its inhibition.
1. CS(=O)(=O)Nc1ccc(-c2ccc3c(NC(=O)C4CC4)n[nH]c3c2)cc1
2. COc1c(C(N)=O)cc(-c2ccc(Cl)cc2)cc1-c1ccc(S(N)(=O)=O)cc1
3. CS(=O)(=O)CCNCc1ccoc1-c1ccc2ncnc(Nc3ccc(OCc4ccccc4)cc3)c2c1

[reply]
2.03
-0.02
0.28

Batch of 6 compounds: report inhibition for each.
1. Cc1cc(O)cc(C)c1/C=C/c1cncc(C(=O)OC(C)(C)C)c1
2. Cn1c(-c2nonc2N)nc2cnccc21
3. CC1=C(C(=O)Nc2ccc3[nH]ncc3c2)C(c2ccc(F)cc2)N=C(c2ccc(C(F)(F)F)nc2)N1 (stereo unspecified)
4. FC(F)(F)CNc1nccc(-c2cnn3ncccc23)n1
5. CN(c1ccc(NC(=O)NCCN2CCOCC2)cc1)c1ccnc(Nc2ccc(CS(C)(=O)=O)cc2)n1
6. COc1cccc(-n2ncc3c(N/N=C/c4ccc(C(=O)NCCN(C)C)cc4)ncnc32)c1

[reply]
1. 2.26
2. 3.19
3. 0.18
4. 3.14
5. 2.43
6. 33.3

* * *

# System name: Serine/threonine-protein kinase MRCK alpha (Homo sapiens) (UniProt Q5VT25);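 note: each value is an averaged percent inhibition of MRCK alpha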
# Sequence (Q5VT25 whole entry): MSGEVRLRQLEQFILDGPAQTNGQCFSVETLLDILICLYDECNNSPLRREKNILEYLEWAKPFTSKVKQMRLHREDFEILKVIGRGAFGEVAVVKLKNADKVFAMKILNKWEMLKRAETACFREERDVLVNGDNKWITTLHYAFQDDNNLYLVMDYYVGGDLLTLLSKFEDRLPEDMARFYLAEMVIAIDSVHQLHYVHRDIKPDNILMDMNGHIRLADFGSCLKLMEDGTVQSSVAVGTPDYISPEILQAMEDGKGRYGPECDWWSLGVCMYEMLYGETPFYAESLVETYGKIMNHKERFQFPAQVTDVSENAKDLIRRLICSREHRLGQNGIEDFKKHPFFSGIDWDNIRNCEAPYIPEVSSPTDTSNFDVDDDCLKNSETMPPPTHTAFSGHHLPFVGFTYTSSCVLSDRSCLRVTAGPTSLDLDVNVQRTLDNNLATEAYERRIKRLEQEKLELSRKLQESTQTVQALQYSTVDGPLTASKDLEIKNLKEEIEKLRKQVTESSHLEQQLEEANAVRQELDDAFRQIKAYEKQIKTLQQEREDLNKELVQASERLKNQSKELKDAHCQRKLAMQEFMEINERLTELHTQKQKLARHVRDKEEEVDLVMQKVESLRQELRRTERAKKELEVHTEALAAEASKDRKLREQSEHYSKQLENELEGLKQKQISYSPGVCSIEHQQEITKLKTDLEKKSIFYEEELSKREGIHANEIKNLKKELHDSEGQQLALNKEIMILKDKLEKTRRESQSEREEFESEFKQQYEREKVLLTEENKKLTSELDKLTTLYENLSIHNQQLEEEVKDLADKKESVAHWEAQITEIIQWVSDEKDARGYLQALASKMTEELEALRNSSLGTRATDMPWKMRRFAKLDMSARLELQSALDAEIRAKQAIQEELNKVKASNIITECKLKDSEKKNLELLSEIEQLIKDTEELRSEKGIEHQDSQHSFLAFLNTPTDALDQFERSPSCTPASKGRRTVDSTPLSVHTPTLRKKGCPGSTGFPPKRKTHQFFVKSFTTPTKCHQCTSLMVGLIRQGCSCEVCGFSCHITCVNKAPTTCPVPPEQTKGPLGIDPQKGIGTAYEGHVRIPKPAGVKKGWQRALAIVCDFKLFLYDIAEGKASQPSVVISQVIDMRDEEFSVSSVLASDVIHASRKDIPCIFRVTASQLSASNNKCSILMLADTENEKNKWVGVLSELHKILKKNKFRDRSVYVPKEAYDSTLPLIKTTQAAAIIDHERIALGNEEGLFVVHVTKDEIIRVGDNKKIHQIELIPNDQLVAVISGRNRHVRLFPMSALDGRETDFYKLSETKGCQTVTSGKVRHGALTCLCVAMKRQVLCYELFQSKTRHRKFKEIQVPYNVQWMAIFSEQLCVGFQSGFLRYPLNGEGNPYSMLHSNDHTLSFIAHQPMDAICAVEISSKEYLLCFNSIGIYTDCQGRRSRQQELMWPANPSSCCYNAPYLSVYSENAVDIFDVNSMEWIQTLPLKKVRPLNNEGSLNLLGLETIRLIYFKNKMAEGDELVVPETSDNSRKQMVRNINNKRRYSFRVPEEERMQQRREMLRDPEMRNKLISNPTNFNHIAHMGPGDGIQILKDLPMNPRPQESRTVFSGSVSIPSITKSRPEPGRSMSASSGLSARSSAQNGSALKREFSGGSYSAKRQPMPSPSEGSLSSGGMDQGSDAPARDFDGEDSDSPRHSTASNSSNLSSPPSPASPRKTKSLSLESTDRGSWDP
# Condition context: at 1 µM
What inhibition was measured for each of the following?
Numbers only, in %.

COC(=O)Nc1nc2ccc(Oc3ccc(NC(=O)Nc4cc(C(F)(F)F)ccc4F)cc3)cc2s1 | -1.54

Batch request: inhibition per item, same order as input.
1. CS(=O)(=O)CCNCc1ccc(-c2ccc3ncnc(Nc4ccc(OCc5cccc(C(F)(F)F)c5)cc4)c3c2)o1
2. O=C(O[C@H]1CN[C@H](C#Cc2cc3ncnc(Nc4ccc5c(cnn5Cc5ccccc5)c4)c3s2)C1)N1CCOCC1

[reply]
1. 5.01
2. -6.83

Each compound below has a recorded value; state its inhibition.
1. NS(=O)(=O)c1ccc(N/N=C2\C(=O)Nc3ccc(C(=O)NCc4ccncc4)cc32)cc1
2. Cc1ccc(-c2cc3c(NC(=O)C4CC4)ncnc3o2)cc1
3. CNC(=O)c1sc(-n2cnc3cc(OC)c(OC)cc32)cc1OCc1ccccc1C(F)(F)F

[reply]
[3.72, 0.37, 2.7]

# per-item lookup of inhibition; items listed below
1. CS(=O)(=O)Nc1ccc(-c2ccc3c(NC(=O)C4CC4)n[nH]c3c2)cc1
2. COc1cc(N2CCN(C(C)C)CC2)ccc1Nc1nc(Nc2cccc(F)c2C(=O)O)c2cc[nH]c2n1
3. CN1CCC(n2cnc(-c3ccc(F)cc3)c2-c2ccnc(NCCO)n2)CC1

[reply]
[-1.86, 1.08, 2.92]
